# Test system: NO bond at the 3′ position of a polynucleotide
# protocolSummary: Octet/CE cyclic extension assay (SBB extension cycles, extended primer length read by capillary electrophoresis)
# Type: biochemical
# assayConditions: 40 C., 37 cycles
readoutKind: Extension at 40 C. in 37 cycles Octet CE assay

compound="CCC(=O)CP(=O)([O-])[O-].[Na+].[Na+] [Di sodium (2-oxobutyl)phosphonate]" targetofassay="NO bond at the 3′ position of a polynucleotide" observedresult="4 bp Extension"
compound="CC(=O)OP(=O)([O-])[O-].[K+].[Li+] [LiK Aceyl Phosphate, reference compound]" targetofassay="NO bond at the 3′ position of a polynucleotide" observedresult="No Extension"
compound=CS(=O)(=O)CC(=O)c1ccccc1 targetofassay="NO bond at the 3′ position of a polynucleotide" observedresult="5 bp Extension"
compound="CC(=O)P(=O)([O-])[O-].[Na+].[Na+] [Di sodium acetylphosphonate]" targetofassay="NO bond at the 3′ position of a polynucleotide" observedresult="12 bp Extension"
compound="COP(=O)([O-])C(C)=O.[Na+] [methyl acetylphosphonate, reference compound]" targetofassay="NO bond at the 3′ position of a polynucleotide" observedresult="No Extension"

Provide Extension at 40 C. in 37 cycles Octet CE assay for all items below, preserving their order.
1. O=C(P(=O)(O)O)P(=O)(O)O [CDP, Carbonyl diphosphonate]
2. CNC(=O)NC [Dimethyl urea, reference compound]
3. O=Cc1ccc(S(=O)(=O)[O-])cc1S(=O)(=O)[O-].[Na+].[Na+]

Ans.
37 bp Extension
No Extension
3 bp Extension
